Form field: IC50 (one value per entry).
Biological target: hGOAT (Homo sapiens)
Sequence (Q96T53 1-435): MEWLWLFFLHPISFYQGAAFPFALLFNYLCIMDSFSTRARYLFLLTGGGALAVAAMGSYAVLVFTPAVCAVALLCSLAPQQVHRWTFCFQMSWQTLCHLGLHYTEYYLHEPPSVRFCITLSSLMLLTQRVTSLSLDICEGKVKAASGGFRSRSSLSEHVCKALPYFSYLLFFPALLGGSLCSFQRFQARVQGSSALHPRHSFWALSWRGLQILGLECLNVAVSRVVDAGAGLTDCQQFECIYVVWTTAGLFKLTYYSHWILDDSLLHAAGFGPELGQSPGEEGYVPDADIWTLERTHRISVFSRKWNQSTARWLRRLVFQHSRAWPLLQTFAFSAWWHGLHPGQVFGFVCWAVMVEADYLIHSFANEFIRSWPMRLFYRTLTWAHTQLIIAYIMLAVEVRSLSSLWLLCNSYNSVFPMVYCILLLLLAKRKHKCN
Experiment: Determination of hGOAT activity in HEK293 cells after incubation with test compound (acyl-ghrelin ELISA)
Conditions: HEK293 cells stably transfected with preproghrelin and human GOAT; octanoate-BSA 100 μM; 5 hours incubation; acyl-ghrelin in medium by ELISA; 8 compound concentrations
Reply with just the number (in nM).

Consider the worked cases shown below.
COC(=O)c1ccc(Cc2c(C)nc3nonc3c2N)cc1: 0.132
Nc1c(Cc2ccc(F)cc2)c(Cl)nc2nonc12: 0.737

Incoming: State the measured IC50 (hGOAT (Homo sapiens)) of Cc1nc2nonc2c(N)c1Cc1ccc(C#N)c(Br)c1
Outgoing: 0.233
